# system_under_test: gp41 of HIV-1 strain HXB2D with mutation V38A (HIV-1 strain HXB2D, UniProt P04578)
# assay_details: cell-based or functional assay
Starred links: 1 amine or outer side, 2 acyl side, 3 side chain; linkers in the order of their positions; H or OH if unused. Positions of bridges follow the written chain, without caps; N, C: chain ends. Non-standard residues stand in square brackets, D forms with d. *: point of attachment. tBuAla = CC(C)(C)C[C@H](N)C(=O)O; Cha = N[C@@H](CC1CCCCC1)C(=O)O; Suc = O=C(CCC(=O)[*:2])[*:1]; hCys = N[C@@H](CCS)C(=O)O; Pentanoyl = CCCCC(=O)*; B1 = not defined here; B2 = not defined here
This listing pairs binders with measured fold change in EC50, HIV-HXB2D V38A mutant.
Reply with just the number (in fold).

binder="Pentanoyl-ECYLACIEELIRKAQEQQEKNEAALR-NH2 (linker 2-6 via B1; reading uncertain) [peptide 41]" unit_abbrev=fold data_value=2
binder="Ac-A[hCys]YAA[hCys]IEALIRAAQEQQEKNEAALR-NH2 (linker 2-6 via B1; reading uncertain) [peptide 77]" unit_abbrev=fold data_value=39
binder="Suc-CYLACIEELIRKAQEQQEKNEAAL[tBuAla]-NH2 (linker 1-5 via B2; reading uncertain) [peptide 23]" unit_abbrev=fold data_value=45
binder="Ac-ACY[Cha]ACIEALIRAAQEQQEKNEAALR-NH2 (linker 2-6 via B1; reading uncertain) [peptide 59]" unit_abbrev=fold data_value=18

Next binder, fold change in EC50, HIV-HXB2D V38A mutant to be filled in.
Query :: Quick one: fold change in EC50, HIV-HXB2D V38A mutant for Pentanoyl-ECYLACIEALIRAAQEQQEKNEAALR-NH2 (linker 2-6 via B1; reading uncertain) [peptide 38] ?
Result :: 3

Sourced from patent US20140357577A1
